Target: Macrophage migration inhibitory factor (Rattus norvegicus) (UniProt P30904)
Assay: Inhibition of recombinant rat MIF expressed in Escherichia coli BL21 (DE3) assessed as reduction in tautomerase activity at 30 uM using L-dopachrome carboxy-methyl ester as substrate by spectrophotometry relative to control
Sequence (P30904 2-115 limits assumed): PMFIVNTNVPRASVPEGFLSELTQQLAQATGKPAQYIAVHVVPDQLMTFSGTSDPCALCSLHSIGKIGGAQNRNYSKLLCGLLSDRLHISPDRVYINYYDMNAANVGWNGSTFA
Attribute: inhibition

According to the records, this molecule COC(=O)CC1CC(c2ccc(O)cc2)=NO1 (configuration not stated) displays inhibition of 30%

---

Target: Macrophage migration inhibitory factor (Rattus norvegicus)
Assay: Binding affinity to recombinant rat MIF expressed in Escherichia coli BL21 (DE3) by chromatography
Active and inactive are the calls of the source. No cut-off for these calls is given here.
Just give me one of these, please: true (1) = active, false (0) = inactive

Consider the following illustrative entries.
[
  {
    "Compound": "O=C(O)CCOCCCc1cccc(C2NC(=O)c3ccccc3S2)n1 (stereo not given)",
    "Category": "false (0)"
  },
  {
    "Compound": "O=C(O)CCOCCCc1ccc(-c2nc(=O)c3ccccc3s2)nc1",
    "Category": "true (1)"
  },
  {
    "Compound": "O=C(O)CCOCCCc1cccc(-c2nc(=O)c3cccnc3s2)n1",
    "Category": "false (0)"
  },
  {
    "Compound": "O=C(O)CCOCCCc1cccc(-c2nc(=O)c3ccccc3s2)n1",
    "Category": "true (1)"
  }
]

Next compound, please.
Kindly provide the recorded test outcome for the following compound: Cc1cc(C)c2sc(-c3cccc(CCCOCCC(=O)O)n3)nc(=O)c2c1
false (0)

---

Molecular target: UniProt:P30904
Test: Inhibition of [3H]-BTZO-1 binding to recombinant rat C-terminal His-tagged MIF expressed in Escherichia coli BL21 (DE3) measured after 3 hrs by SPA
Sequence (P30904 whole entry, looked up): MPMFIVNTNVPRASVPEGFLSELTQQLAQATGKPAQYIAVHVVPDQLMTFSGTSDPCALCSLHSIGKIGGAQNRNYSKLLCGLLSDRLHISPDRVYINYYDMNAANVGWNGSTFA
Metric: pIC50
When answering, recall that pIC50 equals minus log10 of the concentration in mol/L, and write that number alone.

// known answers, use as guide
[
  {
    "Compound": "O=c1nc(-c2ccccn2)sc2ccccc12 [BTZO-1]",
    "Test result": 7.15
  },
  {
    "Compound": "C[S@@+]([O-])CCCCN=C=S [L-SULFORAPHANE]",
    "Test result": 4.60
  },
  {
    "Compound": "CC(C)(C)c1cc(O)ccc1O [E319]",
    "Test result": 5.96
  }
]

For the next question, use this compound.
According to the records, this compound CCCCC/C=C/C=C1/C(=O)C=C[C@@H]1C/C=C\CCCC(=O)O displays pIC50 of 5.44

---

Target: Macrophage migration inhibitory factor (Rattus norvegicus)
Experiment: Inhibition of recombinant rat MIF expressed in Escherichia coli BL21 (DE3) assessed as reduction in tautomerase activity at 30 uM using L-dopachrome carboxy-methyl ester as substrate by spectrophotometry relative to control
Metric: inhibition

// known answers, use as guide
[
  {
    "Compound": "O=C1NC(c2ccccn2)Sc2ccccc21 (stereo unspecified)",
    "inhibition": "3%"
  },
  {
    "Compound": "O=C(O)CCc1cccc(-c2nc(=O)c3ccccc3s2)n1",
    "inhibition": "14%"
  },
  {
    "Compound": "Cc1cccc2c(=O)nc(-c3ccccn3)sc12",
    "inhibition": "6%"
  },
  {
    "Compound": "O=c1nc(-c2ccccn2)sc2ncccc12",
    "inhibition": "5%"
  }
]

According to the records, this compound O=c1nc(-c2ccccn2)sc2ccccc12 displays inhibition of 13%

According to the records, this compound O=c1nc(-c2cccnc2)sc2ccccc12 displays inhibition of 12%
